Target: T1, LILRB2-His antigen (UniProt Q8N423 22-460, limits assumed)
T1 construct: Coated on ELISA plates; also used for phage panning; also called LILRB2 antigen; not shown: His tag
Test: indirect ELISA, coated LILRB2-His
property: EC50 (nM)
Numbers only here, please. The scale is nM.

Q: # get_value(readout='EC50', item= B2-14 (antibody, V domains shown, also called B2-14_HC; B2-14_LC) VH: QVQLVQSGAEVKKPGSSVKVSCKASGGTFSSYAISWVRQAPGQGLEWMGGIIPIFGTANYAQKFQGRVTITADESTSTAYMELSSLRSEDTAVYYCARASMVETYFDYWGQGTMVTVSS VL: QSVLTQPRSVSGSPGQSVTISCTGTSSDVGGYNYVSWYQQHPGKAPKLMISEVSKRPSGVPDRFSGSKSGNTASLTVSGLQAEDEADYYCSSYAGGYTPYVFGTGTKVTVL )
Ans: 1.97

Q: Same for B2-9 (antibody, human IgG1, V domains shown, also called B2-9_HC; B2-9_LC) VH: QVQLVQSGAEVKKPGASVKVSCKASGYTFTSYGISWVRQAPGQGLEWMGWISAYNGNTNYAQKLQGRVTMTTDTSTSTAYMELRSLRSDDTAVYYCARDGYGMDVWGQGTTVTVSS VL: QSPSSLSASVGDRVTITCRTSHTVNSYLNWYQQEPGKAPKLLIYAASNLQSGVPSRFSGSGSGTDFSLTIHNLQPEDFATYYCQQSYRTPLTFGQGTKVDIK
Ans: 0.608

Q: Same for B2-27 (antibody, human IgG1, V domains shown, also called B2-27_HC; B2-27_LC) VH: QVQLVQSGAEVKKPGSSVKVSCKASGGTFSSYAISWVRQAPGQGLEWMGGIIPIFGTANYAQKFQGRVTITADESTSTAYMELSSLRSEDTAVYYCARESYSSSSFDYWGQGTTVSVSS VL: QPVLTQPASVSGSPGQSITISCTGTSSDVGGYNYVSWYQQHPGKAPKLMIYDVSNRPSGVSNRFSGSKSGNSASLTISGLQAEDEADYYCSSYTSSSTPYVFGTGTKVTVL
Ans: 379

Q: Same for B2-11 (antibody, V domains shown, also called B2-11_HC; B2-11_LC) VH: QVQLQQSGPGLVKPSQTLSLTCAISGDSVSSNSAAWNWIRQSPSRGLEWLGRTYYRSKWYNDYAVSVKSRITINPDTSKNQFSLQLNSVTPEDTAVYYCARQDESAADDAFDIWGQGTLVIVSS VL: QSVLTQPPSASGTPGQRVTISCSGSKSNVGNNFVHWYQQLPGTAPKLLLYSNLERSSGVPERFSGSKSGTSAYLAISGLRSDDEADYYCAAWDDSLPGWVFGGGTKLTVL
Ans: 3.79

Values compiled from patent US20230068663A1.
